- measurement-notes: CPHEA_Stoker_NIS_Cytotoxicity: Cytotoxicity Assessment for CPHEA's Radioactive Iodide Uptake (RAIU) Assay for Sodium/Iodide Symporter (NIS) Inhibition, Stoker and Laws Labs (AID 2283897)
Activity calls are given as the source filed them. The calls were made as follows: active = hit-call score of the fitted dose curve at least 0.9, where 1 is the maximum; inconclusive = response in the unintended direction; inactive = score below 0.9.
Hi there, use one of these labels in your reply, thanks! true (active), false (inactive)

// query So what was the verdict on CSc1ccc(Oc2ccc(S(N)(=O)=O)cc2CN(C)C)cc1C in this test?
// result false

// query Call for entry CCCCCCCCCCCCCCOS(=O)(=O)O :
// result false

// query Recorded call for CC(COCC(C)OC(=O)c1ccccc1)OC(=O)c1ccccc1 (stereo unspecified) ?
// result false

// query Outcome? CCc1nc(N)nc(N)c1-c1ccc(Cl)cc1
// result false

// query Given CCC(C)N(C)C(=O)c1cc2ccccc2c(-c2ccccc2Cl)n1 (stereo unspecified) , state the outcome it received in this test.
// result false

// query Status in this test for Cc1c(C)c2c(c(C)c1O)CCC(C)(COc1ccc(CC3SC(=O)NC3=O)cc1)O2 (stereo unspecified) ?
// result true

// query Dear all, I need the recorded test outcome for CCN(CC)CCOc1ccc(C(=C(Cl)c2ccccc2)c2ccccc2)cc1 , thank you.
// result true

// query State the result this test recorded for CC(=O)OCC(COC(C)=O)OC(C)=O .
// result false

// query Given O=C(Oc1ccccc1)c1cccc(C(=O)Oc2ccccc2)c1 , state the outcome it received in this test.
// result false

// query State the result this test recorded for Cc1ccc(-c2cc(C(F)(F)F)nn2-c2ccc(S(N)(=O)=O)cc2)cc1 .
// result false

// query Returns: the outcome recorded for CN(C)C(=O)NC1(c2ccccc2)CCN(CCC[C@]2(c3ccc(Cl)c(Cl)c3)CCCN(C(=O)c3ccccc3)C2)CC1 in this assay.
// result false

meta.source: PubChem BioAssay (EPA / NIEHS)
